Hello, the source for this data is PubChem BioAssay (NCI), in case you need it.

test system: K-562 leukemia; experiment: NCI-60 one-dose screen, 48 h (100 = growth as untreated, 0 = no growth, -100 = all killed); settings: 10 µM unless noted
The panel holds about 83,000 compounds, 20% with a hit somewhere; the sample as a whole holds those more often.
readout label: growth (%)

{"columns": ["molecule", "test system", "reported result"],
 "data": [
  ["COc1cc(/C=C/C(=O)c2ccccc2)ccc1Oc1nc(NCCO)nc(N2CCOCC2)n1", "K-562 leukemia", 22.9],
  ["COc1cc2nc(-c3ccc(C(F)(F)F)cc3)cc(OCCCNCC3CCCO3)c2cc1OC (stereo not given)", "K-562 leukemia", 10.2],
  ["CCCC(=O)NC(c1ccc2c(c1)OC(F)(F)O2)c1cc(C)c2cccnc2c1O (stereo not given)", "K-562 leukemia", 15.9],
  ["CCN(CC)c1ccc(C=O)c(OCc2cn(CC(=O)Nc3ccc(Cl)cc3)nn2)c1", "K-562 leukemia", 51.7],
  ["CN(C)S(=O)(=O)c1oc(-c2ccccc2)nc1C#N", "K-562 leukemia", 5.64],
  ["COc1ccc(C(=O)/C=C/c2ccc(Oc3nc(NCCO)nc(N4CCOCC4)n3)c(OC)c2)cc1", "K-562 leukemia", 6.9],
  ["O=C(CSc1nccc(=O)[nH]1)Nc1ccc(-c2nc3ccccc3[nH]2)cc1", "K-562 leukemia", 105],
  ["N#Cc1c(-c2ccc(F)cc2)nc2c(C#N)c(Nc3ccccc3)nn2c1N", "K-562 leukemia", 99.5],
  ["NS(=O)(=O)c1cccc(Nc2nc(SCC(=O)c3ccc([N+](=O)[O-])cc3)nc3ccccc23)c1", "K-562 leukemia", 19.7],
  ["Cc1ccc(C(=O)Nc2cccc(C(F)(F)F)c2)cc1Nc1nc(-c2cnccn2)nc2c1cnn2C", "K-562 leukemia", 3.86],
  ["O=C(N/N=C/c1ccc([N+](=O)[O-])s1)c1[nH]c2ccc(Br)cc2c1-c1ccccc1", "K-562 leukemia", 5.34],
  ["O=C(N/N=C/c1ccc([N+](=O)[O-])o1)c1[nH]c2ccc(Br)cc2c1-c1ccccc1", "K-562 leukemia", 3.51],
  ["Oc1c(Cl)cc(Cl)c2ccc(CN3CCCCC3)nc12", "K-562 leukemia", 21.9],
  ["Cc1ccc(CNS(=O)(=O)/N=C2\\NC(=O)NC2=C(Cl)Cl)cc1", "K-562 leukemia", 27.7],
  ["OC1CCN(CCCOc2c3ccccc3nc3c2oc2ccc(Cl)cc23)CC1", "K-562 leukemia", 3.22],
  ["COc1cc(-c2nc3ccc(-c4nnc(SCC(=O)Nc5ccc(C(C)=O)cc5)o4)cc3[nH]2)cc(OC)c1OC", "K-562 leukemia", 108],
  ["CCCC(=O)NC(c1ccc(N(CC)CC)cc1)c1cc(C)c2cccnc2c1O (stereo not given)", "K-562 leukemia", 14.6],
  ["CN(C)CCCNc1c2ccccc2nc2c1oc1ccc(Cl)cc12", "K-562 leukemia", -1.57],
  ["COc1cc(/C=C/C(=O)c2ccc(C(F)(F)F)cc2)ccc1Oc1nc(NCCO)nc(N2CCOCC2)n1", "K-562 leukemia", 6.49],
  ["CC(C)(C)Nc1nc2c(OCCc3ccccc3)cccn2c1-c1ccccc1Cl", "K-562 leukemia", 0.922],
  ["Cc1c(Nc2nnc(SCC(=O)Nc3sc4c(c3C#N)CCCC4)s2)c(=O)n(-c2ccccc2)n1C", "K-562 leukemia", 93.5],
  ["N/C(=N\\c1nc2c(Br)cccc2s1)C(Br)Br", "K-562 leukemia", 3.75],
  ["Clc1ccc2c(NCCCn3ccnc3)c3oc4ccc(Cl)cc4c3nc2c1", "K-562 leukemia", 66.2],
  ["Cc1cc2nc3c4cc(Cl)ccc4n(CC(=O)NCCN(C)C)c3nc2cc1C", "K-562 leukemia", -32.9],
  ["COc1cc2cc(Oc3ccc(NC(=O)c4cccc(C(F)(F)F)c4)cc3)c(C)nc2cc1OCCN1CCCCC1", "K-562 leukemia", -48.2],
  ["CS(=O)(=O)Nc1ccc(-c2nn(-c3ccc(S(C)(=O)=O)cc3)cc2/C=C/C(=O)c2ccc(NC(=O)CO[N+](=O)[O-])cc2)cc1", "K-562 leukemia", 102],
  ["Nc1c(C(=O)Nc2ccc(C(F)(F)F)cc2)sc2nc(-c3cnccn3)cc(-c3cccs3)c12", "K-562 leukemia", 35.5],
  ["CSCCC(C(=O)O)N1C(=O)/C(=C/c2ccc(O)c(O)c2)SC1=S (stereo not given)", "K-562 leukemia", 109],
  ["Nc1ncc(-c2ccc3ncnc(N4CCc5cc(F)c(Cl)cc54)c3c2)cc1CO", "K-562 leukemia", 7.76],
  ["CS(=O)(=O)c1ccc(-c2nc3ccccn3c2-c2nc3ccc([N+](=O)[O-])cc3[nH]2)cc1", "K-562 leukemia", 91.3],
  ["O=C(CCN1C(=O)/C(=C/c2ccccc2)SC1=S)N1CCOCC1", "K-562 leukemia", 43.1],
  ["CCCSc1nc(Nc2ccc(/C(C)=N\\NC(N)=S)cc2)c(C#N)c(-c2ccc(OC)cc2)n1", "K-562 leukemia", 85.1],
  ["CCOc1ccc2nc(NC(=O)c3ccc(C(F)(F)F)cc3)sc2c1", "K-562 leukemia", 108],
  ["COc1cc(/C=C/C(=O)c2cc(OC)c(OC)c(OC)c2)ccc1OCc1ccc(F)cc1", "K-562 leukemia", 11.7],
  ["CN(C)c1ccc(/C=C2\\Cc3c(F)ccc(Br)c3C2=O)cc1", "K-562 leukemia", 98.4],
  ["C#Cc1nc(C2=C(C)/C(=N/OCc3ccccc3)CC2)cs1", "K-562 leukemia", 75.5],
  ["O=C1Nc2ccc(Cl)cc2/C1=C/c1ccc(OCC(=O)c2ccc(Br)cc2)cc1", "K-562 leukemia", 102],
  ["CC1=C(C)C(=O)C(Nc2ccccc2)=C(Cl)C1=O", "K-562 leukemia", 15.9],
  ["Cn1ccnc1C(=O)/C=C/c1ccc(NC(=O)Nc2ccc(F)cc2)cc1", "K-562 leukemia", 9.78],
  ["COC1CCN(Cc2ccc3c(NNC(=O)c4cnccn4)nc4cc(F)ccc4n23)C1 (stereo not given)", "K-562 leukemia", 12]
]}

----------
system: SW-620 colon; assay: NCI-60 one-dose screen, 48 h (100 = growth as untreated, 0 = no growth, -100 = all killed); details: 10 µM unless noted
Compounds without any hit were thinned out: in the full panel of roughly 83,000, 20% have a hit.
Classify as follows. Reported growth greater than or equal to 90%: T. Reported growth below: F.

{"columns": ["compound", "test system", "class name"],
 "data": [
  ["O=C1/C(=C/C2=Cc3ccccc3OC2)SC(=S)N1c1ccc(F)cc1", "SW-620 colon", "T"],
  ["NS(=O)(=O)c1ccc(Nc2nc(SCC(=O)c3ccc(Cl)cc3)nc3ccccc23)cc1", "SW-620 colon", "T"],
  ["Clc1ccc2c(NCCCn3ccnc3)c3oc4ccccc4c3nc2c1", "SW-620 colon", "F"],
  ["C#Cc1nc(C2=C(C)C(OC(=O)CCC(=O)O)CC2)cs1 (centres undefined)", "SW-620 colon", "T"],
  ["Clc1ccc2oc3c(NCCCn4ccnc4)c4ccccc4nc3c2c1", "SW-620 colon", "F"],
  ["NC(=O)c1c(NC(=O)c2ccc(C3CCCCC3)cc2)sc2c1CCC(=O)C2", "SW-620 colon", "F"],
  ["COc1ccc(/C=N/NC(=O)c2[nH]c3ccc(Br)cc3c2-c2ccccc2)o1", "SW-620 colon", "F"],
  ["Oc1c(Cl)cc(Cl)c2ccc(CN3CCCCC3)nc12", "SW-620 colon", "F"],
  ["COc1cc(/C=C/C(=O)c2ccccc2)ccc1Oc1nc(NCCO)nc(N2CCOCC2)n1", "SW-620 colon", "F"],
  ["CC(C)(C)Nc1nc2c(OCCc3ccccc3)cccn2c1-c1ccc(Cl)cc1", "SW-620 colon", "F"],
  ["O=C(CSc1nc2sc3c(c2c(=O)n1-c1ccc(Cl)cc1)CCCC3)N/N=C/c1ccc(F)cc1", "SW-620 colon", "F"],
  ["COc1ccc(NC2=CC(=O)C(C)=C(C)C2=O)cc1", "SW-620 colon", "T"],
  ["c1ccc2c(NCCCN3CCOCC3)c3oc4ccccc4c3nc2c1", "SW-620 colon", "F"],
  ["Cn1c(SCC(=O)Nc2ccc(-c3nc4ccc([N+](=O)[O-])cc4[nH]3)cc2)nc2ccccc2c1=O", "SW-620 colon", "F"],
  ["O=C(CSc1nccc(=O)[nH]1)Nc1ccc(-c2nc3ccccc3[nH]2)cc1", "SW-620 colon", "T"],
  ["CS(=O)(=O)c1ccc(-c2nc3ccccn3c2/C=N/Nc2nc(-c3ccc(Cl)cc3)cs2)cc1", "SW-620 colon", "T"],
  ["CCCCCCNC(=O)Oc1ccc(/C(=C(/C)c2ccccc2)c2ccc(OCCN3CCCCCC3)cc2)cc1", "SW-620 colon", "F"],
  ["COc1ccc(/C=C/C(=O)c2ccc(NC(=O)CSc3nnc(-c4ccc5nc(-c6ccc(Cl)cc6)[nH]c5c4)o3)cc2)cc1", "SW-620 colon", "T"],
  ["[Cl][Ru].c1ccc(-c2cccc(-c3ccccn3)n2)nc1.c1ccc(-c2ccnc3c2ccc2c(-c4ccccc4)ccnc23)cc1", "SW-620 colon", "F"],
  ["Cn1cc(-c2cc(N)n3nc(-c4cn(C)c5ccc(Br)cc45)cc3n2)c2cc(Br)ccc21", "SW-620 colon", "F"],
  ["Cc1ccc2ccc3ccc(C)nc3c2n1.Cc1ccc2ccc3ccc(C)nc3c2n1.Oc1c(Cl)cc(Cl)c2ccc(CN3CCCCC3)nc12.[Ru]", "SW-620 colon", "F"],
  ["COc1cc(/C=C/C(=O)c2ccc(Cl)cc2)ccc1Oc1nc(NCCO)nc(N2CCOCC2)n1", "SW-620 colon", "F"],
  ["CN1CCN(Cc2ccc(NC(=O)c3cncc(C#Cc4cnc5[nH]ncc5c4)c3)cc2C(F)(F)F)CC1", "SW-620 colon", "F"],
  ["Nc1cc(-c2c[nH]c3ccc(Cl)cc23)nc2cc(-c3c[nH]c4ccc(Cl)cc34)nn12", "SW-620 colon", "F"],
  ["Nc1nc(N)c2c(n1)NC(c1ccc(C(F)(F)F)cc1)CC(c1ccc(Nc3nc(NCCO)nc(Nc4ccc(Cl)cc4)n3)cc1)=N2 (centres undefined)", "SW-620 colon", "F"],
  ["CC(C)(C)Nc1nc2c(OCCc3ccccc3)cccn2c1-c1ccccc1Cl", "SW-620 colon", "F"],
  ["Cc1cccc2sc(/N=C(\\N)C(Cl)(Cl)Cl)nc12", "SW-620 colon", "T"],
  ["O=C(CSc1nc2sc3c(c2c(=O)n1-c1ccc(Cl)cc1)CCCC3)NNC(=O)Nc1ccc(Cl)c(C(F)(F)F)c1", "SW-620 colon", "F"],
  ["CCOC(=O)c1c(Nc2ccccc2)nn2c(N)c(C#N)c(-c3ccc(F)cc3)nc12", "SW-620 colon", "F"],
  ["CCCC(=O)NC(c1cccnc1)c1cc(C)c2cccnc2c1O (centres undefined)", "SW-620 colon", "F"],
  ["Cc1cc2nc3c4cc(Cl)ccc4n(CC(=O)NCCN(C)C)c3nc2cc1C", "SW-620 colon", "F"],
  ["O=C(N/N=C/c1cccs1)c1[nH]c2ccc(Br)cc2c1-c1ccccc1", "SW-620 colon", "F"],
  ["OC1CCN(CCCOc2c3ccc(Cl)cc3nc3c2oc2ccccc23)CC1", "SW-620 colon", "F"],
  ["CN(C)c1ccc(/C=c2\\sc3nc4ccccc4n3c2=O)cc1", "SW-620 colon", "T"],
  ["O=C1[C@H]2Cc3c([nH]c4ccccc34)[C@@H](c3ccc(Br)cc3)N2C(=O)CN1C1CCN(Cc2ccccc2)CC1", "SW-620 colon", "F"],
  ["Cn1c(SCC(=O)c2cccs2)nc2ccccc2c1=O", "SW-620 colon", "T"],
  ["C=CCn1c(SCC(=O)c2ccccc2)nnc1-c1c[nH]c2ccccc12", "SW-620 colon", "T"],
  ["COC(=O)C1CN(S(=O)(=O)/N=C2\\NC(=O)NC2=C(Cl)Cl)C1", "SW-620 colon", "T"]
]}
